Quick reference: relative viability of the listed items.
# Tested on: NCI-H3122
# assay_summary: relative viability (nuclei count vs DMSO), 5 days (fraction); higher = more cells survive
# condition_notes: first compound 0.05 µM

molecule	relative viability
CC1(C)CCC(c2ccc(Cl)cc2)=C(CN2CCN(c3ccc(C(=O)NS(=O)(=O)c4ccc(N[C@H](CCN5CCOCC5)CSc5ccccc5)c(S(=O)(=O)C(F)(F)F)c4)cc3)CC2)C1 [Navitoclax] + C[C@]1(O)C[C@@H](c2nc(-c3ccc4ccc(-c5ccccc5)nc4c3)c3c(N)nccn32)C1 [Linsitinib] (partner 1 µM)	1.13
CC1(C)CCC(c2ccc(Cl)cc2)=C(CN2CCN(c3ccc(C(=O)NS(=O)(=O)c4ccc(N[C@H](CCN5CCOCC5)CSc5ccccc5)c(S(=O)(=O)C(F)(F)F)c4)cc3)CC2)C1 [Navitoclax] + NC(=O)Nc1cc(-c2cccc(F)c2)sc1C(=O)N[C@H]1CCCNC1 [AZD7762] (partner 0.2 µM)	0.895
CC1(C)CCC(c2ccc(Cl)cc2)=C(CN2CCN(c3ccc(C(=O)NS(=O)(=O)c4ccc(N[C@H](CCN5CCOCC5)CSc5ccccc5)c(S(=O)(=O)C(F)(F)F)c4)cc3)CC2)C1 [Navitoclax] + N=C(N)NC(=N)NCCc1ccccc1 [Phenformin] (partner 250 µM)	0.306

----------
relative viability listing for selected compounds.
# Test system: LCLC-97TM1
# assay_summary: relative viability (nuclei count vs DMSO), 5 days (fraction); higher = more cells survive
# condition_notes: first compound 0.03162 µM
assay_metric: relative viability

compound	assay_metric	recorded_measurement
NC(=O)Nc1cc(-c2cccc(F)c2)sc1C(=O)N[C@H]1CCCNC1 [AZD7762] + O=C(CCCCCCC(=O)Nc1ccccc1)NO [Vorinostat] (partner 1 µM)	relative viability	0.725
NC(=O)Nc1cc(-c2cccc(F)c2)sc1C(=O)N[C@H]1CCCNC1 [AZD7762] + CCNC(=O)c1noc(-c2cc(C(C)C)c(O)cc2O)c1-c1ccc(CN2CCOCC2)cc1 [Luminespib] (partner 0.01 µM)	relative viability	0.706
NC(=O)Nc1cc(-c2cccc(F)c2)sc1C(=O)N[C@H]1CCCNC1 [AZD7762] + CS(=O)(=O)N1CCN(Cc2cc3nc(-c4cccc5[nH]ncc45)nc(N4CCOCC4)c3s2)CC1 [Pictilisib] (partner 1 µM)	relative viability	0.201
NC(=O)Nc1cc(-c2cccc(F)c2)sc1C(=O)N[C@H]1CCCNC1 [AZD7762] + CC1(C)CCC(c2ccc(Cl)cc2)=C(CN2CCN(c3ccc(C(=O)NS(=O)(=O)c4ccc(N[C@H](CCN5CCOCC5)CSc5ccccc5)c(S(=O)(=O)C(F)(F)F)c4)cc3)CC2)C1 [Navitoclax] (partner 0.5 µM)	relative viability	0.517

----------
# relative viability values compiled below
# System: HCC-366
# assay_summary: relative viability (nuclei count vs DMSO), 5 days (fraction); higher = more cells survive
# condition_notes: first compound 0.01581 µM
assay_metric: relative viability

compound	recorded_measurement
CC1(C)CCC(c2ccc(Cl)cc2)=C(CN2CCN(c3ccc(C(=O)NS(=O)(=O)c4ccc(N[C@H](CCN5CCOCC5)CSc5ccccc5)c(S(=O)(=O)C(F)(F)F)c4)cc3)CC2)C1 [Navitoclax] + CC(=O)Nc1cccc(-n2c(=O)n(C3CC3)c(=O)c3c(Nc4ccc(I)cc4F)n(C)c(=O)c(C)c32)c1 [Trametinib] (partner 0.02 µM)	0.419
CC1(C)CCC(c2ccc(Cl)cc2)=C(CN2CCN(c3ccc(C(=O)NS(=O)(=O)c4ccc(N[C@H](CCN5CCOCC5)CSc5ccccc5)c(S(=O)(=O)C(F)(F)F)c4)cc3)CC2)C1 [Navitoclax] + Nc1nc2[nH]cc(CCc3ccc(C(=O)N[C@@H](CCC(=O)O)C(=O)O)cc3)c2c(=O)[nH]1 [Pemetrexed] (partner 0.2 µM)	0.167
CC1(C)CCC(c2ccc(Cl)cc2)=C(CN2CCN(c3ccc(C(=O)NS(=O)(=O)c4ccc(N[C@H](CCN5CCOCC5)CSc5ccccc5)c(S(=O)(=O)C(F)(F)F)c4)cc3)CC2)C1 [Navitoclax] + O=C(c1cc(Cc2n[nH]c(=O)c3ccccc23)ccc1F)N1CCN(C(=O)C2CC2)CC1 [Olaparib] (partner 8 µM)	0.43

----------
# Test system: EKVX
# assay_summary: relative viability (nuclei count vs DMSO), 5 days (fraction); higher = more cells survive
# condition_notes: first compound 0.1265 µM

compound	relative viability
O=C(O)c1ccc(-c2c[nH]c3ncc(-c4ccccc4)cc23)cc1C1CCCC1 + Nc1ncn([C@H]2C[C@H](O)[C@@H](CO)O2)c(=O)n1 [Decitabine] (partner 2 µM)	0.362
O=C(O)c1ccc(-c2c[nH]c3ncc(-c4ccccc4)cc23)cc1C1CCCC1 + CS(=O)(=O)CCNCc1ccc(-c2ccc3ncnc(Nc4ccc(OCc5cccc(F)c5)c(Cl)c4)c3c2)o1 [Lapatinib] (partner 2 µM)	0.216
O=C(O)c1ccc(-c2c[nH]c3ncc(-c4ccccc4)cc23)cc1C1CCCC1 + CC(C)C[C@H](NC(=O)[C@H](Cc1ccccc1)NC(=O)c1cnccn1)B(O)O [Bortezomib] (partner 0.002 µM)	0.873
O=C(O)c1ccc(-c2c[nH]c3ncc(-c4ccccc4)cc23)cc1C1CCCC1 + Cc1nc(NC(=O)N2CCC[C@H]2C(N)=O)sc1-c1ccnc(C(C)(C)C(F)(F)F)c1 [Alpelisib] (partner 2 µM)	0.966
O=C(O)c1ccc(-c2c[nH]c3ncc(-c4ccccc4)cc23)cc1C1CCCC1 + CCNC(=O)c1noc(-c2cc(C(C)C)c(O)cc2O)c1-c1ccc(CN2CCOCC2)cc1 [Luminespib] (partner 0.01 µM)	0.92

----------
# System: NCI-H1623
# assay_summary: relative viability (nuclei count vs DMSO), 5 days (fraction); higher = more cells survive
# condition_notes: first compound 0.253 µM
assay_metric: relative viability

compound	recorded_measurement
Oc1nc(-c2ccc(C(F)(F)F)cc2)nc2c1CSCC2 [XAV939] + N=C(N)NC(=N)NCCc1ccccc1 [Phenformin] (partner 250 µM)	0.555
C=C1C(=O)O[C@@H](CCCCCCCC)[C@@H]1C(=O)O [C-75] + N=C(N)NC(=N)NCCc1ccccc1 [Phenformin] (partner 250 µM)	0.652
Oc1nc(-c2ccc(C(F)(F)F)cc2)nc2c1CSCC2 [XAV939] + CCNC(=O)c1noc(-c2cc(C(C)C)c(O)cc2O)c1-c1ccc(CN2CCOCC2)cc1 [Luminespib] (partner 0.01 µM)	0.432

----------
# System: EKVX
# assay_summary: relative viability (nuclei count vs DMSO), 5 days (fraction); higher = more cells survive
# condition_notes: first compound 0.253 µM
Entries and their relative viability

compound	relative viability
Oc1nc(-c2ccc(C(F)(F)F)cc2)nc2c1CSCC2 [XAV939] + CCNC(=O)c1noc(-c2cc(C(C)C)c(O)cc2O)c1-c1ccc(CN2CCOCC2)cc1 [Luminespib] (partner 0.01 µM)	0.786
C=C1C(=O)O[C@@H](CCCCCCCC)[C@@H]1C(=O)O [C-75] + CS(=O)(=O)CCNCc1ccc(-c2ccc3ncnc(Nc4ccc(OCc5cccc(F)c5)c(Cl)c4)c3c2)o1 [Lapatinib] (partner 2 µM)	0.211
Oc1nc(-c2ccc(C(F)(F)F)cc2)nc2c1CSCC2 [XAV939] + CS(=O)(=O)CCNCc1ccc(-c2ccc3ncnc(Nc4ccc(OCc5cccc(F)c5)c(Cl)c4)c3c2)o1 [Lapatinib] (partner 2 µM)	0.181
C=C1C(=O)O[C@@H](CCCCCCCC)[C@@H]1C(=O)O [C-75] + Cc1nc(NC(=O)N2CCC[C@H]2C(N)=O)sc1-c1ccnc(C(C)(C)C(F)(F)F)c1 [Alpelisib] (partner 2 µM)	0.863
C=C1C(=O)O[C@@H](CCCCCCCC)[C@@H]1C(=O)O [C-75] + CC(=O)c1c(C)c2cnc(Nc3ccc(N4CCNCC4)cn3)nc2n(C2CCCC2)c1=O [Palbociclib] (partner 0.5 µM)	0.307

----------
# Test system: NCI-H520
# assay_summary: relative viability (nuclei count vs DMSO), 5 days (fraction); higher = more cells survive
# condition_notes: first compound 0.03162 µM
Items are presented alongside their recorded relative viability.

molecule	relative viability
NC(=O)Nc1cc(-c2cccc(F)c2)sc1C(=O)N[C@H]1CCCNC1 [AZD7762] + CC(=O)Nc1cccc(-n2c(=O)n(C3CC3)c(=O)c3c(Nc4ccc(I)cc4F)n(C)c(=O)c(C)c32)c1 [Trametinib] (partner 0.02 µM)	0.702
NC(=O)Nc1cc(-c2cccc(F)c2)sc1C(=O)N[C@H]1CCCNC1 [AZD7762] + CS(=O)(=O)N1CCN(Cc2cc3nc(-c4cccc5[nH]ncc45)nc(N4CCOCC4)c3s2)CC1 [Pictilisib] (partner 1 µM)	0.28
NC(=O)Nc1cc(-c2cccc(F)c2)sc1C(=O)N[C@H]1CCCNC1 [AZD7762] + CCNC(=O)c1noc(-c2cc(C(C)C)c(O)cc2O)c1-c1ccc(CN2CCOCC2)cc1 [Luminespib] (partner 0.01 µM)	0.191
NC(=O)Nc1cc(-c2cccc(F)c2)sc1C(=O)N[C@H]1CCCNC1 [AZD7762] + CC1(C)CCC(c2ccc(Cl)cc2)=C(CN2CCN(c3ccc(C(=O)NS(=O)(=O)c4ccc(N[C@H](CCN5CCOCC5)CSc5ccccc5)c(S(=O)(=O)C(F)(F)F)c4)cc3)CC2)C1 [Navitoclax] (partner 0.5 µM)	1.13
